target system: D(2) dopamine receptor (Homo sapiens)
Sequence (P14416 whole entry): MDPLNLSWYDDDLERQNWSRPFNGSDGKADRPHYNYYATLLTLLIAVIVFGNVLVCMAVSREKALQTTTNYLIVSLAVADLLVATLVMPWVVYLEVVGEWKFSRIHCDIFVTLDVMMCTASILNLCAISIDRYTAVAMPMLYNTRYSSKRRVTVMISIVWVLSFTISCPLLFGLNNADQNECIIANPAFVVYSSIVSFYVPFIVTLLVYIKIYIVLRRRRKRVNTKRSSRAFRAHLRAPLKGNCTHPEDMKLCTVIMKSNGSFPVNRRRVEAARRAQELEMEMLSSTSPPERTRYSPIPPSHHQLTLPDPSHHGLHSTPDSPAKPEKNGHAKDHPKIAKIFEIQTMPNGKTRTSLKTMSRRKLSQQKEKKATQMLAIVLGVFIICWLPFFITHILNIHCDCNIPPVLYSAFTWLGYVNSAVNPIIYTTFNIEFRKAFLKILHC
protocol notes: biochemical
Format: cell-based, CHO
Description: In vitro binding affinity to displace [3H]-spiperone from the cloned human dopamine receptor D2 short in CHO cells
pKi: −log10 of the molar value.
value type: pKi

(I) O=C1C[C@@H](CN2CCN(c3ccccc3)CC2)N=C(c2ccccc2)N1
(II) c1ccc(C2=NCC(N3CCN(c4ccccc4)CC3)CCN2)cc1 (single isomer, unassigned)
Problem: Field: lower pKi | Options: I / II # respond with the chosen item's label
Result: II
(II: 4.85, I: 5.19)

(1) O=C1C[C@H](CN2CCN(c3ccccc3)CC2)N=C(c2ccccc2)N1
(2) COc1ccc(Br)cc1C1=NCC[C@@H](CN2CCN(c3ccccc3)CC2)N1
Problem: Of 1 and 2 , whose reported pKi is the larger number? I would appreciate it if you answered with the label of your choice.
Result: 1
(1: 5.55, 2: 4.85)

(P) c1ccc(C2=NC[C@H](N3CCN(c4ccccc4)CC3)CCN2)cc1
(Q) COc1ccc(Br)cc1C1=NCC[C@H](CN2CCN(c3ccccc3)CC2)N1
Problem: pKi comparison. Which is larger, P or Q ? API: response body contains the label of the selected item.
Result: P
(P: 5.38, Q: 4.37)
